# measurement target: atATC-F161A (Arabidopsis thaliana, UniProt P49077, F161A)
# Construct: 2.6 kDa fusion tag (modified pET28a); made in house; host or cells: E. coli BLR(DE3)-pLysS
# Sequence (P49077 82-390 F161A): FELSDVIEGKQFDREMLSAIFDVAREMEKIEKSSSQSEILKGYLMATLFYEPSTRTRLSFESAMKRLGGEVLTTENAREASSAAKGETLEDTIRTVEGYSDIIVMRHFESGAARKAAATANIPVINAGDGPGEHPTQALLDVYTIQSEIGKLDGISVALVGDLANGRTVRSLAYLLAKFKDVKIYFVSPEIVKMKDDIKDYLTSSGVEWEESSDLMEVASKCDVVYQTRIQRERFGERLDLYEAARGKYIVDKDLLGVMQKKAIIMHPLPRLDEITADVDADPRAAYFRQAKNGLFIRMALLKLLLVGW
# assay info: biochemical
# Format: binding
# condition set: KD Site 2, ITC, F161A, site 2
# Protocol: Experiments were performed in an Auto-iTC200 calorimeter (MicroCal, Malvern-Panalytical) at 25 °C with a 0.2 ml reaction cell and 30–40 µM protein solution (in protomer units) in the cell. […] All solutions were in GF buffer and degassed and mixed in the cell by stirring at 750 rpm. Data analysis was performed with Origin 7 (OriginLab) using a general three-site cooperative and a non-cooperative binding model, restricted to one or two ligand binding sites when convenient[24],[62],[63]. […]
endpoint name: Kd (nM)
Respond with the bare value in nM.

Kd on atATC-F161A (Arabidopsis thaliana, UniProt P49077, F161A) for NC(=O)OP(=O)(O)O [CP, carbamoyl phosphate] is 730

Reference source for all entries: paper PMC7878868
